Target: UniProt P55201
Sequence (P55201 whole entry): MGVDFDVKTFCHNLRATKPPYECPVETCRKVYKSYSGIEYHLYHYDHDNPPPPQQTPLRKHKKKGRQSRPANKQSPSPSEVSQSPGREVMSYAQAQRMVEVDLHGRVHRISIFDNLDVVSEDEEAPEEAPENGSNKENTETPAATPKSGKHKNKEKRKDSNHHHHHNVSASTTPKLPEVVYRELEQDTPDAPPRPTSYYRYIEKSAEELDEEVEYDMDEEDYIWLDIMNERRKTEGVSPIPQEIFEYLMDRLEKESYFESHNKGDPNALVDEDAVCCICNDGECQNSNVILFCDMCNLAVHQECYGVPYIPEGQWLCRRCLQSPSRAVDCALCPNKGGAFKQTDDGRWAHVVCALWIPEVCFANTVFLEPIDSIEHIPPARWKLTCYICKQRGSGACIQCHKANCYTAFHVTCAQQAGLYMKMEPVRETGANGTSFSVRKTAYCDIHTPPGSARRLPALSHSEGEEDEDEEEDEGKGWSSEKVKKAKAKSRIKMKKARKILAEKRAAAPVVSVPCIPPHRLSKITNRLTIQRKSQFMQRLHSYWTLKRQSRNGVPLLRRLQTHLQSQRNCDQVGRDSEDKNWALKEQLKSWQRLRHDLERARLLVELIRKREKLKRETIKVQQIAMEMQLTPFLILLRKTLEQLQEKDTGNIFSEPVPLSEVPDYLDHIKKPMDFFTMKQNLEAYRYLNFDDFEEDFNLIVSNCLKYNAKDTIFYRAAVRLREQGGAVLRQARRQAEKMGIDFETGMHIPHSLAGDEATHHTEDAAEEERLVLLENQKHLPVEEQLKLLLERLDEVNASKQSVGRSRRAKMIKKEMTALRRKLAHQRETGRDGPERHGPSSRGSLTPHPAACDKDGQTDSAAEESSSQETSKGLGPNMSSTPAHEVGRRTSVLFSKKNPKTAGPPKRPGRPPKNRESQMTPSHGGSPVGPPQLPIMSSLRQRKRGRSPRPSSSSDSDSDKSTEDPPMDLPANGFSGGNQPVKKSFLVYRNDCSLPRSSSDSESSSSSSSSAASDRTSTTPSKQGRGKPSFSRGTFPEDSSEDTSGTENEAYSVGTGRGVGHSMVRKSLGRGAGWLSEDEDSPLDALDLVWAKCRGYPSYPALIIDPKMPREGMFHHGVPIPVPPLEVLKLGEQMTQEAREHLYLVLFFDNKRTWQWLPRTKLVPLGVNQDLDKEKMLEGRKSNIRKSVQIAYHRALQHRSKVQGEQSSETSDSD
Assay: Inhibition of human BRPF1 by BROMOscan assay
pIC50: −log10 of the molar value.
READOUT: pIC50

# return recorded pIC50 for input CC(=O)N1c2ccc(-c3ccc(C(=O)O)cc3)cc2[C@H](Nc2ccc(Cl)cc2)C[C@@H]1C
< 8.40

* * *

Target: Bromodomain-containing protein 1 (Homo sapiens, UniProt O95696)
Sequence (O95696 whole entry): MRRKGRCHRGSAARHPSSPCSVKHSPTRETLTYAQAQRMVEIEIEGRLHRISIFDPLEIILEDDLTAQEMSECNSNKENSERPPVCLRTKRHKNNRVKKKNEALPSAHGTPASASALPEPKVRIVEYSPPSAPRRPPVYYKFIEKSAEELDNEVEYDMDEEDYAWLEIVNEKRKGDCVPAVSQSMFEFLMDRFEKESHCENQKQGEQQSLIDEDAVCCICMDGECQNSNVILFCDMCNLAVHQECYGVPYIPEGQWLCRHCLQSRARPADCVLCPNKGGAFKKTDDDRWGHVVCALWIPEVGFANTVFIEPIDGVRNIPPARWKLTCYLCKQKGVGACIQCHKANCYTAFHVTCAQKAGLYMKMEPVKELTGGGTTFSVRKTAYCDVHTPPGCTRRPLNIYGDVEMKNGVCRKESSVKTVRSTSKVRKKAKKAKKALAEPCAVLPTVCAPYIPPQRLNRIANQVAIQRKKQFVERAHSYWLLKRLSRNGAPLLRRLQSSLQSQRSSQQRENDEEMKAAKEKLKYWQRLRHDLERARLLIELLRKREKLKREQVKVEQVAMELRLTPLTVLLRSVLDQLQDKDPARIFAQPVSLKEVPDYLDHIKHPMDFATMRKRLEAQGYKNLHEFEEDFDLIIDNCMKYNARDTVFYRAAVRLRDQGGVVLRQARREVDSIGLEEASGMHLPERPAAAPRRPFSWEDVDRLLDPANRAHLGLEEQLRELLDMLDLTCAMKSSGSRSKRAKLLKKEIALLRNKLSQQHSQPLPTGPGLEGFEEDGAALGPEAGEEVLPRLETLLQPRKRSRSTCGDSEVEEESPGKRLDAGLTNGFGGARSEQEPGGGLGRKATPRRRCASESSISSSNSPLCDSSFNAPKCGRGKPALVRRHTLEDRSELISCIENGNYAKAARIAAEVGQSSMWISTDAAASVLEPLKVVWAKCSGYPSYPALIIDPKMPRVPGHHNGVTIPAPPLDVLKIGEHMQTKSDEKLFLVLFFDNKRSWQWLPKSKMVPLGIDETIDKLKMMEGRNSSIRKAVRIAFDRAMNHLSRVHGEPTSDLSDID
Test: Inhibition of human BRD1 by BROMOscan assay
READOUT: IC50

# return recorded IC50 for input CC(=O)N1c2ccc(-c3ccc(C(=O)O)cc3)cc2[C@H](Nc2ccc(Cl)cc2)C[C@@H]1C
> 20 µM

* * *

Each entry below lists one item and its recorded pIC50 value.
Biological target: Bromodomain-containing protein 2 (Homo sapiens)
Sequence (P25440 whole entry, the tested form may be a part): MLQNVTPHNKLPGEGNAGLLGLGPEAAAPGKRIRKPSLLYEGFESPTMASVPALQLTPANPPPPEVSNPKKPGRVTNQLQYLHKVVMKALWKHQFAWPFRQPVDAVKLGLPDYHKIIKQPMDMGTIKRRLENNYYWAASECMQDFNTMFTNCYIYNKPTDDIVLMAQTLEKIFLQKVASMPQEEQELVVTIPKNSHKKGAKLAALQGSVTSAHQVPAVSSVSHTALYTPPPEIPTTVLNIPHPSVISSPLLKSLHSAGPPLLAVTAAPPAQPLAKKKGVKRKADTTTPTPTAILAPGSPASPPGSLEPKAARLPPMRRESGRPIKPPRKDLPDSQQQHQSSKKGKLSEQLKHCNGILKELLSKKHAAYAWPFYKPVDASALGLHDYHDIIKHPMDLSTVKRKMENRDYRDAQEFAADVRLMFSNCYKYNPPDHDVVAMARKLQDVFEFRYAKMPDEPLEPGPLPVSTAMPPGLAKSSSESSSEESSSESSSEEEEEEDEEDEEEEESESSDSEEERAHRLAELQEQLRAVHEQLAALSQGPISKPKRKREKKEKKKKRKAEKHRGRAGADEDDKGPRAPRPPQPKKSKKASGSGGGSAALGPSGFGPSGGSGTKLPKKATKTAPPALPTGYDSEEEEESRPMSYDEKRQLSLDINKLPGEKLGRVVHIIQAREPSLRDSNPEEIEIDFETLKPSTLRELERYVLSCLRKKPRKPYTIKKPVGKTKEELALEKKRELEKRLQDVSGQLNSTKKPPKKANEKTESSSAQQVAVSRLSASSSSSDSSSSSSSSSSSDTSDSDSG
Test: Displacement of biotinylated tetra-acetylated histone H4 from His6-tagged BRD2 (1 to 473 aa) (unknown origin) after 1 hr by TR-FRET assay
Notebook: values listed as pIC50 are -log10 of the concentration (mol/L).

// worked examples, pIC50 included
| COMPOUND | TEST SYSTEM | pIC50 |
| --- | --- | --- |
| CC(=O)N1c2ccc(-c3ccc(CN4CCCCC4)cc3)cc2[C@H](NC=O)C[C@@H]1C (racemic) | Bromodomain-containing protein 2 (Homo sapiens) | 4.80 |
| CC(=O)N1c2ccc(-c3cccc(C(=O)O)c3)cc2[C@H](Nc2ccc(Cl)cc2)C[C@@H]1C (racemic) | Bromodomain-containing protein 2 (Homo sapiens) | 6.10 |
| CC(=O)N1c2ccc(-c3ccc(C#N)cc3)cc2[C@H](Nc2ccccc2)C[C@@H]1C (racemic) | Bromodomain-containing protein 2 (Homo sapiens) | 6.00 |

Here's the next entry for you.
# return recorded pIC50 for input COC(=O)c1ccc(-c2ccc3c(c2)[C@H](Nc2ccc(C(C)(C)C)cc2)C[C@H](C)N3C(C)=O)cc1 (racemic)
6.30

Hello, the source for this data is ChEMBL document CHEMBL3351476, in case you need it.
